Test: Cytotoxic Profiling in NIH 3T3 Cell Line of Diverse Libraries Using Quantitative High-Throughput Screening; further: nearly all actives have a fitted effect of over 55% in size
Settings: NIH 3T3 viability, CellTiter-Glo ATP luminescence, 48-72 h; series mostly up to 96.7 µM
The campaign covered roughly 94,000 compounds. About 4,000 (4.3%) were called active. Roughly 29% stayed inconclusive and do not appear here. The call rests on the fitted dose curve; in most records, active means well fitted inhibition curve with a large enough effect; inconclusive means small, poorly fitted or top-dose-only effect; inactive means no such curve, though single readings can be large or run the other way. What follows is part of a selection rich in actives, with near analogues and random picks from the rest.
Outcome codes: y (active), n (inactive)

molecule: Cc1nc(C)c(C(=O)N2CCN(C(=O)N(C)C)[C@@H]3CS(=O)(=O)C[C@@H]32)s1
category: n
--
molecule: CN(C)C[C@@H]1CN(C2CCOCC2)C[C@H]1NC(=O)c1ccco1
category: n
--
molecule: COc1cccc(CCC(=O)N2CCCC2c2nc(C3CCOCC3)no2)c1 (stereo not drawn)
category: n
--
molecule: Cc1cnc(CCNC(=O)c2ccco2)n1C1CCC1
category: n
--
molecule: COc1ccc(-n2nc(C)c([C@H]3C=C[C@@H](OC(=O)Nc4cccc(F)c4)C3)c2C)cc1
category: y
--
molecule: O=C(NC1CC1)C1CCCN(c2nc3ncccc3o2)C1 (stereo not drawn)
category: n
--
molecule: Cc1noc(-c2cccc(OC3CN(C(=O)CN4C(=O)CCC4=O)C3)c2)n1
category: n
--
molecule: CC1=C[C@@H](CNC(C)C)[C@H](C(C)C)C[C@H]1Cc1nnc(-c2ccc(N(C)C)cc2)o1
category: y

* * *

Experiment: Cytotoxic Profiling in NIH 3T3 Cell Line of Diverse Libraries Using Quantitative High-Throughput Screening; further: nearly all actives have a fitted effect of over 55% in size; further: potency means the concentration at half of the fitted maximal effect
Conditions: NIH 3T3 viability, CellTiter-Glo ATP luminescence, 48-72 h; series mostly up to 96.7 µM
Screen size: about 94,000 compounds; about 4,000 (4.3%) were called active. About 29% were inconclusive and are not listed. Shown is part of a subset that was picked to be rich in actives.

molecule: Cc1cnc(CCNS(=O)(=O)Cc2ccccc2F)n1Cc1ccccc1
Potency: inactive
//
molecule: COc1ccc(Cn2c(=O)c(C(=O)N3CCN(C(=O)Nc4ccccc4)CC3)nc3cccnc32)cc1
Potency: inactive
//
molecule: O=C(N1CCN(c2cc(-c3ccc(Cl)cc3)[nH]n2)CC1)C1(c2ccccc2)CC1
Potency: 35.5 µM (active)
//
molecule: COc1cccc(CN2C(=O)OC3(CCN(C(=O)c4scnc4C)CC3)C2(C)c2cccnc2)c1 (centres undefined)
Potency: 31.6 µM (active)
//
molecule: COc1cccc([S+](=O)([O-])N2CCC3(C2)N=C(c2ccncc2)C(=O)N3)c1 (centres undefined)
Potency: inactive
//
molecule: O=C1NCCCCCN(C(=O)NCCc2ccccc2)[C@H]2CCC[C@@H]12
Potency: inactive
//
molecule: Cc1ccc(S(=O)(=O)N2C[C@@H](F)C[C@H]2C(=O)N2CCCCC2)cc1Cl
Potency: inactive
//
molecule: CCc1cc(=O)n(CC(=O)Nc2cccc(C(C)=O)c2)c(-c2ccccc2)n1
Potency: 35.5 µM (active)
//
molecule: COc1cccc(C(=O)N2CCC(Cc3nc(-c4cnccn4)no3)CC2)c1
Potency: inactive
//
molecule: COCCN1CCOC2(CCN(Cc3ccc(F)cc3F)CC2)C1=O
Potency: inactive
//
molecule: O=C(NC1CCN(c2nc3ncccc3o2)CC1)c1ccc(F)cc1
Potency: inactive
//
molecule: CC(=O)c1ccc(NC(=O)N2CCc3c(nc(-c4ccc(F)cc4)[nH]c3=O)C2)cc1
Potency: inactive
//
molecule: COc1ccc(-c2ncc3c(n2)OCCN(Cc2ccccc2)C3=O)cn1
Potency: 35.5 µM (active)
//
molecule: CN(Cc1cccc(C(F)(F)F)c1)Cc1cccc(C(F)(F)F)c1
Potency: inactive
//
molecule: O=C(CN1C(=O)NC2(CCCCC2)C1=O)Nc1cccc(Br)c1
Potency: inactive
//
molecule: Cc1noc(C)c1[S+](=O)([O-])N1CC(Oc2ccc(F)c(F)c2)C1
Potency: inactive
//
molecule: O=C1C(N2CCN(S(=O)(=O)c3ccccc3)CC2)CCN1CCc1ccccc1 (centres undefined)
Potency: inactive
//
molecule: Cc1noc(C)c1[S+](=O)([O-])NC1CCN(Cc2cccc(-c3ccc(F)c(F)c3)c2)CC1
Potency: 14.1 µM (active)
//
molecule: COc1ccc(CN2CCN3C(=O)N(c4ccccc4)C[C@H]3C2)cn1
Potency: inactive
//
molecule: CC[C@H]1CN(S(C)(=O)=O)CC[C@H]1CC(=O)NCc1ccco1
Potency: inactive
//
molecule: O=C(NC1CCN(c2cc(-c3ccc(Cl)cc3)[nH]n2)C1)c1c[nH]c2ccccc12 (centres undefined)
Potency: 39.8 µM (active)
//
molecule: COc1cc(NC(=O)c2cc3c(N4CCSCC4)nc(C)cn3n2)cc(OC)c1
Potency: inactive
//
molecule: CCOc1ccccc1C1NC(=O)N(CC(=O)Nc2ccc(C)c(C)c2)C2=C1C(=O)OC2 (centres undefined)
Potency: inactive
//
molecule: COc1cccc(CN2CCN(C(=O)c3cnc4ccccn4c3=O)CC2=O)c1
Potency: inactive

* * *

Assay: Cytotoxic Profiling in NIH 3T3 Cell Line of Diverse Libraries Using Quantitative High-Throughput Screening; further: nearly all actives have a fitted effect of over 55% in size
Settings: NIH 3T3 viability, CellTiter-Glo ATP luminescence, 48-72 h; series mostly up to 96.7 µM
About 4,000 (4.3%) of roughly 94,000 compounds were called active. Inconclusive results (about 29%) are left out. Calls come from the whole dose curve; as a rule, active = well fitted inhibition curve with a large enough effect; inconclusive = small, poorly fitted or top-dose-only effect; inactive = no such curve, though single readings can be large or run the other way. This is one part of a sample in which actives are shown more often than they occur.
Outcomes: active, inactive

chemical.smiles: COc1ccc2nc(C[C@@H]3C[C@@H](C(C)C)[C@H](CNC(=O)CC(C)(C)CC(=O)O)C=C3C)[nH]c2c1
category: inactive
//
chemical.smiles: CC1=C[C@@H](CNCC(C)C)[C@H](C(C)C)C[C@H]1Cc1nc2c(C)cccc2[nH]1
category: active
//
chemical.smiles: CC1=C[C@@H](CNC(=O)CC2(CC(=O)O)CCCC2)[C@H](C(C)C)C[C@H]1Cc1nc2c(C)cccc2[nH]1
category: inactive

* * *

Experiment: Cytotoxic Profiling in NIH 3T3 Cell Line of Diverse Libraries Using Quantitative High-Throughput Screening; further: nearly all actives have a fitted effect of over 55% in size
Details: NIH 3T3 viability, CellTiter-Glo ATP luminescence, 48-72 h; series mostly up to 96.7 µM
Hit rate of the full screen: of about 94,000 compounds, about 4,000 (4.3%) were called active. Roughly 29% stayed inconclusive and do not appear here. Calls come from the whole dose curve; as a rule, active = well fitted inhibition curve with a large enough effect; inconclusive = small, poorly fitted or top-dose-only effect; inactive = no such curve, though single readings can be large or run the other way. The list comes from a sample in which actives are over-represented; it also holds close analogues and randomly drawn compounds.
Possible outcomes: yes for active, no for inactive

molecule: COCCC1(NC(=O)c2ccccc2)CCN(Cc2ccc(F)cc2F)CC1
category: no

molecule: CC(C)C(=O)NCC12CCC=C1N(C)C(=O)CC2 (configuration not stated)
category: no

molecule: COc1ccccc1-c1cc(C(=O)NCc2ccccn2)nn2cnnc12
category: no

molecule: O=C1CCN(C2CCCC2)CCOCCN1
category: no

molecule: COc1cccc(-c2ccc(CN3CCCC(NC(=O)NC4CCCC4)C3)cc2)c1 (configuration not stated)
category: no

molecule: O=C(CC1CC1)N1C[C@H]2OC(=O)N(CCc3cccc(Cl)c3)[C@H]2C1
category: no

molecule: Cn1ccc(Nc2cc3c(cn2)CN(CCc2ccccc2)CCN3)n1
category: yes

molecule: CNC(=O)c1cn2c(n1)CN(C(C)=O)CC2
category: no

molecule: COc1ccc(CNC(=O)[C@H]2O[C@H](CCN3CCN(C)CC3)CC[C@@H]2O)cc1
category: no

molecule: Cc1ccc(CNC(=O)[C@@H]2COCC(=O)N2Cc2ccc(F)cc2)cc1
category: no

molecule: COc1ccccc1CN1CC[C@@H](CO)N(C)c2ncccc2C1
category: yes

molecule: O=C(NC1CCCN(Cc2ccc(-c3cncnc3)cc2)C1)C1CCCC1 (configuration not stated)
category: no

molecule: COCCN1CCN(C(=O)[C@@H]2Cc3cn(C)c4cccc(c34)[C@H](CC(C)C)N2)CC1
category: no

molecule: COCc1nncn1C1CCN(C(=O)c2ccccc2F)CC1
category: no

molecule: Cn1ncc2c(C(=O)NCc3ccc(F)cc3)cc(-c3cccc(C(F)(F)F)c3)nc21
category: no

molecule: Cc1ccc(-c2cccc(CN3CCCC3C(=O)NCc3ccc(C(F)(F)F)cc3)c2)cc1Cl (configuration not stated)
category: yes

molecule: COc1ccc(CNC(=O)[C@@H]2Cc3cn(Cc4ccncc4)c4cccc(c34)[C@H](CC(C)C)N2)cc1
category: yes

molecule: COc1ccc(-c2[nH]ncc2CN2CCCC(C(=O)NCc3ccccc3)CCNC(=O)CC2)cc1 (configuration not stated)
category: no

molecule: CNC(=O)[C@@H](c1ccccc1F)N1CCC[C@H]1C(=O)NCCOC
category: no

molecule: CC(C)NC(=O)NC1CCCN(c2ccc3nnc(C4CC4)n3n2)C1 (configuration not stated)
category: no

molecule: COc1cccc(-c2cccc(C(=O)N3CCCC3C(=O)NCC3CC3)c2)c1 (configuration not stated)
category: no

molecule: CCN1CCN(CCNC(=O)C2Cn3cccc3C(=O)N2Cc2cccnc2)CC1 (configuration not stated)
category: no

molecule: CCCN1C(=O)Cc2ccccc2C1C(=O)NCc1cccc(OC)c1OC (configuration not stated)
category: no

molecule: Cc1cc(C)cc(-c2ccc(CN3CCCC(NC(=O)c4ccccc4)C3)cc2)c1 (configuration not stated)
category: yes

molecule: Cc1ccc(-c2cccc(CN3CCCC(NC(=O)c4ccc(C(F)(F)F)cc4)C3)c2)cc1Cl (configuration not stated)
category: no

molecule: Cc1nc(C(=O)N2CC[C@H](NS(=O)(=O)c3cccs3)C[C@H]2C(=O)N[C@H](Cc2c[nH]c3ccccc23)C(N)=O)cs1
category: no

molecule: CC(C)N(C)Cc1nnnn1CC(=O)NCc1ccc2nonc2c1
category: no

molecule: O=C(C[C@@H]1CCNC[C@@H]1Cc1cc(-c2ccc(F)cc2)on1)NCCN1CCOCC1
category: no

molecule: O=C(NC1CCCN(Cc2ccc(-c3cncnc3)cc2)C1)c1ccccc1 (configuration not stated)
category: no

molecule: O=c1[nH]c(C2CCCN([S+](=O)([O-])c3cccc(C(F)(F)F)c3)C2)nn1-c1ccc(F)cc1 (configuration not stated)
category: no

molecule: Cc1ccc(NC(=O)NC[C@H]2O[C@@H](CC(=O)N3CCN(c4ccccc4)CC3)[C@H](O)[C@@H]2O)cc1
category: no

molecule: CC(C)c1nc(CCn2cc(-c3cncnc3)nn2)cs1
category: no
